TARGET: Fibroblast growth factor receptor 1 (Homo sapiens, UniProt P11362)
Sequence (P11362 whole entry): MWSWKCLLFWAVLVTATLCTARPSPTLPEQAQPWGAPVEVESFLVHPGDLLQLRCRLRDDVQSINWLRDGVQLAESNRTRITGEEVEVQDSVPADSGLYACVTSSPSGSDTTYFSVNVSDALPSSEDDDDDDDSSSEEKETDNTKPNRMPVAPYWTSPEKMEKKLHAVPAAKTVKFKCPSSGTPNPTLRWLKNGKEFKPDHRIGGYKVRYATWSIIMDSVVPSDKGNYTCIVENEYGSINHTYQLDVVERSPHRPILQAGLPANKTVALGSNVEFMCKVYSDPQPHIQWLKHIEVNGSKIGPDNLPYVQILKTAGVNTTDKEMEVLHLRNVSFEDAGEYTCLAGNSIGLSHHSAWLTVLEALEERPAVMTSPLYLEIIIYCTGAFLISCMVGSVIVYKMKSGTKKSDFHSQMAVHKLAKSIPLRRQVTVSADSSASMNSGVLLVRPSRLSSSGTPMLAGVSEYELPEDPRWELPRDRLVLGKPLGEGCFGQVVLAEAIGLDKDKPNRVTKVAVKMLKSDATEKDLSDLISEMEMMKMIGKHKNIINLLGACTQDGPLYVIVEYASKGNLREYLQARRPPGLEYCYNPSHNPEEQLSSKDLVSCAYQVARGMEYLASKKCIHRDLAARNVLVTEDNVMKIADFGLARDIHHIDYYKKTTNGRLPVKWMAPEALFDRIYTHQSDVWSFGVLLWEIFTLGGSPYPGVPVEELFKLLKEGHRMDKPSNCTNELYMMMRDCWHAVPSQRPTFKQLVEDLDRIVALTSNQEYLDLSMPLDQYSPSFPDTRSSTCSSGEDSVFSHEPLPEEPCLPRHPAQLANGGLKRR
ASSAY TEXT: Inhibition of recombinant FGFR1 (unknown origin) using poly (Glu,Tyr)4:1 as substrate after 60 mins by ELISA based spectrophotometric analysis
# maps each entry to its IC50

These solved cases illustrate the format of a correct answer.
[
  {
    "SMILES": "COc1cccc(-c2ccc3c(NC(=O)c4ccc(N5CCN(C)CC5)cc4F)n[nH]c3c2)c1F",
    "RESULT": "> 1000 nM"
  },
  {
    "SMILES": "CCN1CCN(c2ccc(C(=O)Nc3n[nH]c4cc(-c5cccc(OC)c5F)ccc34)cc2C(F)(F)F)CC1",
    "RESULT": "> 1000 nM"
  }
]

Input: Requested read-out IC50, target or system Fibroblast growth factor receptor 1 (Homo sapiens, UniProt P11362), entry CCN1CCN(c2ccc(C(=O)Nc3n[nH]c4cc(-c5c(F)ccc(OC)c5F)ccc34)cc2)CC1
Output: < 4.1 nM

---

TARGET: Fibroblast growth factor receptor 2 (Homo sapiens, UniProt P21802)
Sequence (P21802 whole entry): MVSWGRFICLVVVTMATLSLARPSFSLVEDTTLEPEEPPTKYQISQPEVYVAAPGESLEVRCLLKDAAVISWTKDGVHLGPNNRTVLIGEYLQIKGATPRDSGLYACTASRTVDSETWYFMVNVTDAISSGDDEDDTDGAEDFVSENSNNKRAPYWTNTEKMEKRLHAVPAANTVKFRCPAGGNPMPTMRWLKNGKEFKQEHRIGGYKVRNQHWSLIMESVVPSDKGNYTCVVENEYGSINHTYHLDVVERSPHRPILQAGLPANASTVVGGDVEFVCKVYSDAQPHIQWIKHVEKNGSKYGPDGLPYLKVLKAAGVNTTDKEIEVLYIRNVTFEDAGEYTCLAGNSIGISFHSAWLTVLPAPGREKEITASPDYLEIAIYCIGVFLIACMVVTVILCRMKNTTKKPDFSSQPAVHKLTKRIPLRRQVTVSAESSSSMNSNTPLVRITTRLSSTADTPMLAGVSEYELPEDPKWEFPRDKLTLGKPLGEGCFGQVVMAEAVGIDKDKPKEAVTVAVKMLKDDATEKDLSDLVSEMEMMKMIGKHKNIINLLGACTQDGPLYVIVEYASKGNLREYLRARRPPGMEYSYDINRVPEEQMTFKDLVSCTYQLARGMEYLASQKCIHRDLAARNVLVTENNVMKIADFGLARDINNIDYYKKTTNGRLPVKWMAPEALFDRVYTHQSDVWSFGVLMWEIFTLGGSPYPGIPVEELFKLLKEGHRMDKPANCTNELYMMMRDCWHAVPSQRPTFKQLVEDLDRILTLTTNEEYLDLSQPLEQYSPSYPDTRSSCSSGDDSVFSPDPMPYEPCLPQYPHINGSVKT
ASSAY TEXT: Inhibition of recombinant FGFR2 (unknown origin) using poly (Glu,Tyr)4:1 as substrate after 60 mins by ELISA based spectrophotometric analysis
pIC50: −log10 of the molar value.
OBSERVED PROPERTY: pIC50

These solved cases illustrate the format of a correct answer.
[
  {
    "SMILES": "COc1ccc(F)c(-c2ccc3c(NC(=O)c4ccc(N5CCN(C)CC5)cc4)n[nH]c3c2)c1F",
    "pIC50": "> 8.39"
  },
  {
    "SMILES": "COc1ccc(F)c(-c2ccc3c(NC(=O)c4ccc(N5CCN(C(C)=O)CC5)cc4)n[nH]c3c2)c1F",
    "pIC50": 8.54
  },
  {
    "SMILES": "COc1cccc(-c2ccc3c(NC(=O)c4ccc(N5CCN(C)CC5)cc4F)n[nH]c3c2)c1F",
    "pIC50": "< 6.00"
  }
]

Moving on to the next compound.
Input: Looking for the measured pIC50 of CCN1CCN(c2ccc(C(=O)Nc3n[nH]c4cc(-c5cccc(OC)c5F)ccc34)cc2C(F)(F)F)CC1 , can you help?
Output: < 6.00
